Where do the numbers come from? From ChEMBL document CHEMBL1629704.

Entries annotated with measured pEC50
- Test system: dengue virus type 4
- Assay Method Text: Antiviral activity against Dengue virus 4 MY22713 infected in human A549 cells by CFI assay
- Type: functional, organism-based
Worth noting: pEC50 values are minus log10 of concentrations stated in mol/L.

> print(dat)
                                 cpd.smiles  endpoint.result
1  C#C[C@@]1(O)[C@H](O)[C@@H](CO)O[C@H]1n1cc(C(N)=O)c2c(N)ncnc21             5.16
2  C#C[C@@]1(O)[C@H](O)[C@@H](CO)O[C@H]1n1ccc2c(N)ncnc21             6.15

Lab note: next compound to report on.
Request: Can you look up pEC50 on dengue virus type 4 for C#C[C@@]1(O)[C@H](OC(=O)C(C)C)[C@@H](COC(=O)C(C)C)O[C@H]1n1cc(C(N)=O)c2c(N)ncnc21 ?
Result: 6.15

---

- Test system: dengue virus type 2
- Assay Method Text: Antiviral activity against Dengue virus 2 NGC infected in human A549 cells after 2 days by CFI assay in presence of 40 mg/ml human serum albumin and 2 mg/ml alpha-1-acid glycoprotein
- Format: functional, organism-based
- Particulars: A549, 48 h
Entries annotated with measured pEC50
Worth noting: pEC50 values are minus log10 of concentrations stated in mol/L.

> print(dat)
                                 cpd.smiles  endpoint.result
1  C#C[C@@]1(O)[C@H](OC(=O)C(C)C)[C@@H](COC(=O)C(C)C)O[C@H]1n1cc(C(N)=O)c2c(N)ncnc21             6.07

Lab note: next compound to report on.
Request: Can you look up pEC50 on dengue virus type 2 for C#C[C@@]1(O)[C@H](O)[C@@H](CO)O[C@H]1n1cc(C(N)=O)c2c(N)ncnc21 ?
Result: 5.33

---

- Assay Method Text: Half life in CD-1 mouse at 5 mg/kg, iv by LC-MS-MS analysis
- Type: ADME, organism-based
- Parameters: dose 5 mg/kg, route intravenous
- Particulars: in vivo
Experimental Readout: half-life (h)
Report the figure in h without appending any unit label.

Request: Could you tell me which half-life is on file for C#C[C@@]1(O)[C@H](O)[C@@H](CO)O[C@H]1n1cc(C(N)=O)c2c(N)ncnc21 ?
Result: 1.31

---

Entries annotated with measured pEC50
- Tested on: dengue virus type 2
- Assay Method Text: Antiviral activity against Dengue virus 2 NGC infected in human A549 cells after 2 days by CFI assay in presence of 2 mg/ml alpha-1-acid glycoprotein
- Type: functional, organism-based
- Particulars: A549, 48 h
Worth noting: pEC50 values are minus log10 of concentrations stated in mol/L.

> print(dat)
                                 cpd.smiles  experimental.readout  endpoint.result
1  C#C[C@@]1(O)[C@H](OC(=O)C(C)C)[C@@H](COC(=O)C(C)C)O[C@H]1n1cc(C(N)=O)c2c(N)ncnc21                 pEC50             6.12

Lab note: next molecule to report on.
Request: Could you tell me which pEC50 is on file for C#C[C@@]1(O)[C@H](O)[C@@H](CO)O[C@H]1n1cc(C(N)=O)c2c(N)ncnc21 ?
Result: 5.60

---

- Assay Method Text: Half life in Wistar rat at 5.9 mg/kg, iv by LC-MS-MS analysis
- Assay type: ADME, organism-based
- Set-up: dose 5.9 mg/kg, route intravenous
- Particulars: in vivo
Experimental Readout: half-life (min)
Report the figure in min without appending any unit label.

Request: Could you tell me which half-life is on file for C#C[C@@]1(O)[C@H](O)[C@@H](CO)O[C@H]1n1cc(C(N)=O)c2c(N)ncnc21 ?
Result: 500

---

- Assay Method Text: Oral bioavailability in Wistar rat at 24.8 mg/kg by LC-MS-MS analysis
- Type: ADME, organism-based
- Particulars: in vivo
Experimental Readout: bioavailability (%)
Report the figure in % without appending any unit label.

Request: Could you tell me which bioavailability is on file for C#C[C@@]1(O)[C@H](O)[C@@H](CO)O[C@H]1n1cc(C(N)=O)c2c(N)ncnc21 ?
Result: 2

---

- Tested on: Mus musculus
- Assay Method Text: AUC (0 to infinity) in CD-1 mouse assessed as NITD449 level at 24.2 mg/kg, po by LC-MS-MS analysis
- Type: ADME, organism-based, Plasma
- Set-up: dose 24.2 mg/kg, route oral, time infinity
- Particulars: in vivo
Experimental Readout: AUC (µM·h)
Report the figure in µM·h without appending any unit label.

Request: Could you tell me which AUC is on file for C#C[C@@]1(O)[C@H](OC(=O)C(C)C)[C@@H](COC(=O)C(C)C)O[C@H]1n1cc(C(N)=O)c2c(N)ncnc21 ?
Result: 12.6

---

- Tested on: Rattus norvegicus
- Assay Method Text: Cmax in Wistar rat assessed as NITD449 level at 84.1 mg/kg, po by LC-MS-MS analysis
- Assay type: ADME, organism-based
- Parameters: dose 84.1 mg/kg, route oral
- Particulars: in vivo
Experimental Readout: Cmax (µM)
Report the figure in µM without appending any unit label.

Request: Can you look up Cmax on Rattus norvegicus for C#C[C@@]1(O)[C@H](OC(=O)C(C)C)[C@@H](COC(=O)C(C)C)O[C@H]1n1cc(C(N)=O)c2c(N)ncnc21 ?
Result: 14.2

---

Entries annotated with measured EC50
- Tested on: dengue virus type 2
- Assay Method Text: Antiviral activity against Dengue virus 2 NGC infected in human A549 cells after 2 days by CFI assay in presence of 40 mg/ml human serum albumin
- Type: functional, organism-based
- Particulars: A549, 48 h
Report the figure in µM without appending any unit label.

> print(dat)
                                 cpd.smiles  unit.abbreviation  endpoint.result
1  C#C[C@@]1(O)[C@H](O)[C@@H](CO)O[C@H]1n1cc(C(N)=O)c2c(N)ncnc21                 µM             4.76

Lab note: next compound to report on.
Request: Could you tell me which EC50 is on file for C#C[C@@]1(O)[C@H](OC(=O)C(C)C)[C@@H](COC(=O)C(C)C)O[C@H]1n1cc(C(N)=O)c2c(N)ncnc21 ?
Result: 0.79

---

- Assay Method Text: Clearance in Wistar rat at 5.9 mg/kg, iv by LC-MS-MS analysis
- Type: ADME, organism-based
- Set-up: dose 5.9 mg/kg, route intravenous
- Particulars: in vivo
Experimental Readout: clearance (mL/min/kg)
Report the figure in mL/min/kg without appending any unit label.

Request: Could you tell me which clearance is on file for C#C[C@@]1(O)[C@H](O)[C@@H](CO)O[C@H]1n1cc(C(N)=O)c2c(N)ncnc21 ?
Result: 8.98

---

- Assay Method Text: Tmax in CD-1 mouse at 25 mg/kg, po by LC-MS-MS analysis
- Format: ADME, organism-based
- Design: dose 25 mg/kg, route oral
- Particulars: in vivo
Experimental Readout: Tmax
Don't forget the unit after the number, please.

Request: Could you tell me which Tmax is on file for C#C[C@@]1(O)[C@H](O)[C@@H](CO)O[C@H]1n1cc(C(N)=O)c2c(N)ncnc21 ?
Result: 1 h

---

- Assay Method Text: Tmax in Wistar rat at 24.8 mg/kg, po by LC-MS-MS analysis
- Format: ADME, organism-based
- Parameters: dose 24.8 mg/kg, route oral
- Particulars: in vivo
Experimental Readout: Tmax (min)
Report the figure in min without appending any unit label.

Request: Could you tell me which Tmax is on file for C#C[C@@]1(O)[C@H](O)[C@@H](CO)O[C@H]1n1cc(C(N)=O)c2c(N)ncnc21 ?
Result: 10.2

---

- Assay Method Text: Volume of distribution at steady state Wistar rat at 5.9 mg/kg, iv by LC-MS-MS analysis
- Format: ADME, organism-based
- Set-up: dose 5.9 mg/kg, route intravenous
- Particulars: in vivo, read-out: Vdss
Experimental Readout: Vd (L/kg)
Report the figure in L/kg without appending any unit label.

Request: Could you tell me which Vd is on file for C#C[C@@]1(O)[C@H](O)[C@@H](CO)O[C@H]1n1cc(C(N)=O)c2c(N)ncnc21 ?
Result: 2.71

---

- Assay Method Text: Volume of distribution in CD-1 mouse at 5 mg/kg, iv by LC-MS-MS analysis
- Format: ADME, organism-based
- Set-up: dose 5 mg/kg, route intravenous
- Particulars: in vivo
Experimental Readout: Vd (L/kg)
Report the figure in L/kg without appending any unit label.

Request: Could you tell me which Vd is on file for C#C[C@@]1(O)[C@H](O)[C@@H](CO)O[C@H]1n1cc(C(N)=O)c2c(N)ncnc21 ?
Result: 0.26
